Sourced from patent US8202881B2

System: SET-2 cells
Test: Cell Proliferation Inhibition Assay (3H-thymidine incorporation)
Assay type: cell-based
Conditions: Homo sapiens, 72 h with compound
Method: Cell Proliferation Inhibition Assay Compounds were evaluated for their ability to inhibit cell proliferation, using an assay that measures thymidine incorporation in the DNA of the dividing cell, which is directly correlated with cell numbers. […] Following the addition of compounds, the cells were cultured for an additional 72 h before cell proliferation was determined by measuring DNA synthesis with 3H-thymidine incorporation.
Below is a list of entries, each paired with its recorded IC50 value.

{"Compound": "CCn1c(C(=O)N(C2CC2)C2CC2)cc2c3c(ncn3C)c(Nc3cc(C)n(C)n3)nc21", "IC50 / nM": 60}
{"Compound": "CCn1c(C(=O)N(C2CC2)C2CC2)cc2c3c(ncn3C)c(Nc3nc(C(C)(C)C)cs3)nc21", "IC50 / nM": 2530}
{"Compound": "CCn1nc(Nc2nc3c(cc(C(=O)N(C4CC4)C4CC4)n3CC)c3c2ncn3C)cc1C(=O)O", "IC50 / nM": 10000}
{"Compound": "CCn1c(C(=O)N(C2CC2)C2CC2)cc2c3c(ncn3C)c(Nc3nc(C)c(C(=O)N4CCS(=O)(=O)CC4)s3)nc21", "IC50 / nM": 330}
{"Compound": "CCn1c(C(=O)N(C2CC2)C2CC2)cc2c3c(ncn3C)c(Nc3nc(C)c(C(C)=O)s3)nc21", "IC50 / nM": 240}
{"Compound": "CCn1c(C(=O)N(C2CC2)C2CC2)cc2c3c(ncn3C)c(Nc3cnn(C)c3)nc21", "IC50 / nM": 7.37}
{"Compound": "CCNC(=O)c1nc(Nc2nc3c(cc(C(=O)N(C4CC4)C4CC4)n3CC)c3c2ncn3C)sc1C", "IC50 / nM": 3930}
{"Compound": "CCn1c(C(=O)N(C2CC2)C2CC2)cc2c3c(ncn3C)c(Nc3nc(CF)cs3)nc21", "IC50 / nM": 10}
{"Compound": "CCn1c(C(=O)N(C2CC2)C2CC2)cc2c3c(ncn3C)c(Nc3cc(CN4CCOCC4)n(C)n3)nc21", "IC50 / nM": 170}
{"Compound": "CCn1c(C(=O)N(C2CC2)C2CC2)cc2c3c(ncn3C)c(Nc3nc4c(s3)CS(=O)(=O)CC4)nc21", "IC50 / nM": 10}
{"Compound": "CCn1c(C(=O)N(C2CC2)C2CC2)cc2c3c(ncn3C)c(Nc3nc(C)n(C)n3)nc21", "IC50 / nM": 1270}
{"Compound": "CCn1c(C(=O)N(C2CC2)C2CC2)cc2c3c(ncn3C)c(Nc3ncc(C#N)s3)nc21", "IC50 / nM": 60}
{"Compound": "CCn1c(C(=O)N(C2CC2)C2CC2)cc2c3c(ncn3C)c(Nc3cc(C)n(C4CCC4)n3)nc21", "IC50 / nM": 339}
{"Compound": "CCn1nc(Nc2nc3c(cc(C(=O)N(C4CC4)C4CC4)n3CC)c3c2ncn3C)cc1C(=O)NCCNC(C)=O", "IC50 / nM": 4150}
{"Compound": "CCn1c(C(=O)N(C2CC2)C2CC2)cc2c3c(ncn3C)c(Nc3nc(C(F)(F)F)c(C)s3)nc21", "IC50 / nM": 10000}
{"Compound": "CCn1c(C(=O)N(C2CC2)C2CC2)cc2c3c(ncn3C)c(Nc3nc(C)c(C(=O)NCCOC)s3)nc21", "IC50 / nM": 100}
{"Compound": "CCn1c(C(=O)N(C2CC2)C2CC2)cc2c3c(ncn3C)c(Nc3nc(C)c(C(=O)N4CCC4)s3)nc21", "IC50 / nM": 4.3}
{"Compound": "CCn1c(C(=O)N(C2CC2)C2CC2)cc2c3c(ncn3C)c(Nc3nc(C(=O)NC4CCS(=O)(=O)C4)cs3)nc21 (stereo not shown)", "IC50 / nM": 490}
{"Compound": "CCn1c(C(=O)N(C2CC2)C2CC2)cc2c3c(ncn3C)c(Nc3nc4cc[nH]c(=O)c4s3)nc21", "IC50 / nM": 2850}
